B1: Azoarcus group I ribozyme (parent)
chain: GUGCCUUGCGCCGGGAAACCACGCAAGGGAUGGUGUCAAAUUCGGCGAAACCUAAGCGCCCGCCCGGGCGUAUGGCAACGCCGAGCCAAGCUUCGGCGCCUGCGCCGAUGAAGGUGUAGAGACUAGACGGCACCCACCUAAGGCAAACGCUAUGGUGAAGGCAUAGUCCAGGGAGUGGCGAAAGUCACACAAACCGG

- Variants of: B1
- Protocol Text: reverse-splicing fitness (ratio to wild type); higher = more active; in vitro selection; Mg2+ level not given
Parameter reverse-splicing fitness: see the listing below.

>  <Mutation List>
C82U A111U C150A C169U U176A

>  <reverse-splicing fitness>
0.0198

$$$$
>  <Mutation List>
C82U A111U A120C A145U C150G C169G U176C

>  <reverse-splicing fitness>
0.0054

$$$$
>  <Mutation List>
C82G A145C C150G U176A

>  <reverse-splicing fitness>
0.0337

$$$$
>  <Mutation List>
C82U A111C A120G A145U C150U C169U U176A

>  <reverse-splicing fitness>
0.0158

$$$$
>  <Mutation List>
C82U A145U C169G U176A

>  <reverse-splicing fitness>
0.00811

$$$$
>  <Mutation List>
C82U A111C A120G C150G U176A

>  <reverse-splicing fitness>
0.00789

$$$$
>  <Mutation List>
C82U A120U A145U C150A C169G U176A

>  <reverse-splicing fitness>
0.00218

$$$$
>  <Mutation List>
C82G A120C A145G C150U C169A

>  <reverse-splicing fitness>
0.0102

$$$$
>  <Mutation List>
C82A A111G A145C C150G

>  <reverse-splicing fitness>
0.0325

$$$$
>  <Mutation List>
A111U A120C A145G C150U C169U U176A

>  <reverse-splicing fitness>
0.0282

$$$$
>  <Mutation List>
C82A A120C A145U C150G C169U U176A

>  <reverse-splicing fitness>
0.00709

$$$$
>  <Mutation List>
C82G A111C A120G A145U C169G

>  <reverse-splicing fitness>
0.0132

$$$$
>  <Mutation List>
C82U A145G C150U C169G U176G

>  <reverse-splicing fitness>
0.00503

$$$$
>  <Mutation List>
C82G A111C A145G U176C

>  <reverse-splicing fitness>
0.147

$$$$
>  <Mutation List>
C82G A111U A120C C150G C169G U176G

>  <reverse-splicing fitness>
0.00747

$$$$
>  <Mutation List>
C82U A120C C150A C169G U176A

>  <reverse-splicing fitness>
0.0156

$$$$
>  <Mutation List>
C82A A111U A120U A145C C169A U176G

>  <reverse-splicing fitness>
0.00209

$$$$
>  <Mutation List>
C82U A145G C150U C169U U176G

>  <reverse-splicing fitness>
0.00493

$$$$
>  <Mutation List>
A120G A145C C150U C169G U176A

>  <reverse-splicing fitness>
0.102

$$$$
